# system: T1, human OPGbp [143-317] (human, UniProt O14788 143-317)
# T1 construct: also called OPGL
# T1 sequence (looked up): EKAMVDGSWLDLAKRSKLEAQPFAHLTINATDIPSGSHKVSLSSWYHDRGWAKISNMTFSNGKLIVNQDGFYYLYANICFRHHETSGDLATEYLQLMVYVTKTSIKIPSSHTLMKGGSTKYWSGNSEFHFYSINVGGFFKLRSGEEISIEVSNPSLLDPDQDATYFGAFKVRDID
# test details: SPR (BIAcore), immobilized OPGbp [143-317]
# if measured Kd < 1 nM: condition met  # else: condition not met

Input line: Consider the binder “AT” antibody variant S96L (heavy chain CDR3) (antibody, name in Kabat numbering, V domains shown, not shown: human IgG1 CH1, hinge, CH2 and CH3) VH: QVQLVQSGAEVRKPGASVKVSCKASGYDFSNYAIHWVRQAPGQRLEWMGWINAGNGNTKFSQKFQGRITVTRDTAASTAYMELRSLRSEDTAVYYCARDLSNMVRGIIIAYYFDYWGQGTLVTVSS VL: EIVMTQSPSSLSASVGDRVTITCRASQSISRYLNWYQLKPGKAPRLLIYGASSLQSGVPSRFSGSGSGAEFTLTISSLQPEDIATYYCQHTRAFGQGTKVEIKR . Is its Kd strictly less than 1 nM?
Output line: condition met

Input line: Consider the binder “AT” antibody variant S96P (heavy chain CDR3) (antibody, name in Kabat numbering, V domains shown, not shown: human IgG1 CH1, hinge, CH2 and CH3) VH: QVQLVQSGAEVRKPGASVKVSCKASGYDFSNYAIHWVRQAPGQRLEWMGWINAGNGNTKFSQKFQGRITVTRDTAASTAYMELRSLRSEDTAVYYCARDPSNMVRGIIIAYYFDYWGQGTLVTVSS VL: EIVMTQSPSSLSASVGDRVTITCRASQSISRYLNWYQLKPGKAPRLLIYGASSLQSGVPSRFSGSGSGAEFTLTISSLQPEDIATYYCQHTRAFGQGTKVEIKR . Is its Kd strictly less than 1 nM?
Output line: condition not met

Input line: Consider the binder “AT” antibody variant S96M (heavy chain CDR3) (antibody, name in Kabat numbering, V domains shown, not shown: human IgG1 CH1, hinge, CH2 and CH3) VH: QVQLVQSGAEVRKPGASVKVSCKASGYDFSNYAIHWVRQAPGQRLEWMGWINAGNGNTKFSQKFQGRITVTRDTAASTAYMELRSLRSEDTAVYYCARDMSNMVRGIIIAYYFDYWGQGTLVTVSS VL: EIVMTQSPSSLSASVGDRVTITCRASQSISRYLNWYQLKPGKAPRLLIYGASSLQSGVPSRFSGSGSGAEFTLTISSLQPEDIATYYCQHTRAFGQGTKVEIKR . Is its Kd strictly less than 1 nM?
Output line: condition not met

Input line: Consider the binder “AT” antibody variant S96T (heavy chain CDR3) (antibody, name in Kabat numbering, V domains shown, not shown: human IgG1 CH1, hinge, CH2 and CH3) VH: QVQLVQSGAEVRKPGASVKVSCKASGYDFSNYAIHWVRQAPGQRLEWMGWINAGNGNTKFSQKFQGRITVTRDTAASTAYMELRSLRSEDTAVYYCARDTSNMVRGIIIAYYFDYWGQGTLVTVSS VL: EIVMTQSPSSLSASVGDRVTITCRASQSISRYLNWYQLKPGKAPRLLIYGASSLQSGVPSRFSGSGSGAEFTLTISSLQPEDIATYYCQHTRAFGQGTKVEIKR . Is its Kd strictly less than 1 nM?
Output line: condition met

Input line: Consider the binder “AT” antibody variant S96G (heavy chain CDR3) (antibody, name in Kabat numbering, V domains shown, not shown: human IgG1 CH1, hinge, CH2 and CH3) VH: QVQLVQSGAEVRKPGASVKVSCKASGYDFSNYAIHWVRQAPGQRLEWMGWINAGNGNTKFSQKFQGRITVTRDTAASTAYMELRSLRSEDTAVYYCARDGSNMVRGIIIAYYFDYWGQGTLVTVSS VL: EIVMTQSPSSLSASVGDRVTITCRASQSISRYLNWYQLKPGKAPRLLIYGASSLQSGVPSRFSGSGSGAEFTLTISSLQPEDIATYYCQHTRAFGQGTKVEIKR . Is its Kd strictly less than 1 nM?
Output line: condition not met

Data credit: patent US20140147444A1
